- Experimental system: 17β-HSD1 (Homo sapiens)
- Construct: was measured in intact cell monolayers of T47D and MDA-MB-231 breast cancer cells respectively; endogenous in cells; host or cells: T-47D human breast cancer cells
- Sequence (P14061 1-328): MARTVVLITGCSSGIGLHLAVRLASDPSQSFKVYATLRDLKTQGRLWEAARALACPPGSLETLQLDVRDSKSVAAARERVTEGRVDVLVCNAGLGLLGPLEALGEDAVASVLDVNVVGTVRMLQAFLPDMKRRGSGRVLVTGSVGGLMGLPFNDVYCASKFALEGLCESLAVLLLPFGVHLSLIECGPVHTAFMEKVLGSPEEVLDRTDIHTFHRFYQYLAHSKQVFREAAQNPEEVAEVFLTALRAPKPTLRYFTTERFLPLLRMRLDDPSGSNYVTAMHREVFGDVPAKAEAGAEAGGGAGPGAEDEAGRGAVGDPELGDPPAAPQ
- Experiment notes: 17β-HSD Type I activity in T-47D cells (E1→E2)
- Type: cell-based
- Settings: 10 μM; T-47D cells, E1→E2
Experimental endpoint: % inhibition of 17β-HSD1 @ 10 μM
Please provide the amount together with its unit, number first.

% inhibition of 17β-HSD1 @ 10 μM of C[C@]12CCC3c4ccc(OS(N)(=O)=O)cc4CCC3C1CC(C#N)C2=O (stereo partly shown) [compound 209] on 17β-HSD1 (Homo sapiens)?
73%

% inhibition of 17β-HSD1 @ 10 μM of C[C@]12CCC3c4ccc(O)cc4CCC3C1C/C(=C\c1ccncc1)[C@@H]2O (stereo partly shown) [compound 324] on 17β-HSD1 (Homo sapiens)?
72%

% inhibition of 17β-HSD1 @ 10 μM of CCOC(=O)/C(O)=C1\CC2C3CCc4cc(O)ccc4C3CC[C@]2(C)C1=O (stereo partly shown) [compound 330] on 17β-HSD1 (Homo sapiens)?
77%

% inhibition of 17β-HSD1 @ 10 μM of C[C@]12CCC3c4ccc(O)cc4CCC3C1C/C(=C(/O)C(F)(F)F)C2=O (stereo partly shown) [compound 946] on 17β-HSD1 (Homo sapiens)?
87%

% inhibition of 17β-HSD1 @ 10 μM of C[C@]12CCC3c4ccc(O)cc4CCC3C1C/C(=N/O)C2=O (stereo partly shown) [compound 327] on 17β-HSD1 (Homo sapiens)?
94%

% inhibition of 17β-HSD1 @ 10 μM of C[C@]12CCC3c4ccc(O)cc4CCC3C1CC(C#N)C2=O (stereo partly shown) [compound 207] on 17β-HSD1 (Homo sapiens)?
71%

% inhibition of 17β-HSD1 @ 10 μM of COc1cc2c(cc1O)CCC1C2CC[C@]2(C)C(=O)C(C#N)CC12 (stereo partly shown) [compound 208] on 17β-HSD1 (Homo sapiens)?
31%
